test_system: Coagulation factor VII/tissue factor (Homo sapiens, UniProt P08709)
Sequence (P08709 61-212 limits assumed): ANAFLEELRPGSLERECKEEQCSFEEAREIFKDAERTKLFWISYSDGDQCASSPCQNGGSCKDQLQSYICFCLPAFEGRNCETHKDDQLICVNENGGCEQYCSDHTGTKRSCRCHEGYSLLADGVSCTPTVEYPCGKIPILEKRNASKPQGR
Sequence (P08709 213-466 limits assumed): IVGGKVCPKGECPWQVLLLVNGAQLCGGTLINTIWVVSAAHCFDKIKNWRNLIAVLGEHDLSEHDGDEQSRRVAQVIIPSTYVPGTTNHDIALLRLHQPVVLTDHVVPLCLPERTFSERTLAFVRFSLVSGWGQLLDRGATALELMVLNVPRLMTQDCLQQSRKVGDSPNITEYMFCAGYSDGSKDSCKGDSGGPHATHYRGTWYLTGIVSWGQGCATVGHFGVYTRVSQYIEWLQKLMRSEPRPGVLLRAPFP
Sequence (P13726 33-295 partner limits assumed): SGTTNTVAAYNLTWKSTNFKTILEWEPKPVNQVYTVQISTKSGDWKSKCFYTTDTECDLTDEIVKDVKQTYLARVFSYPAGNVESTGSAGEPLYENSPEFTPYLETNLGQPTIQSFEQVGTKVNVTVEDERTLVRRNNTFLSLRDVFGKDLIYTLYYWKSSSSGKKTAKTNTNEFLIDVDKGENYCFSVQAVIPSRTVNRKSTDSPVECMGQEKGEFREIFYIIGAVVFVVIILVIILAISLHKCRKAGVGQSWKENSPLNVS
protocol_text: Inhibition of human tissue factor/factor 7a
measure: IC50 (µM)
Just the number in µM, nothing appended.

stdin: So what IC50 did N=C(N)c1ccc(CNC(=O)CN2C(=O)[C@H](NS(=O)(=O)Cc3ccccc3)CSc3ccc(N)cc32)cc1 get with Coagulation factor VII/tissue factor (Homo sapiens, UniProt P08709)?
stdout: 2.3

###

test_system: Coagulation factor VII/tissue factor (Homo sapiens)
protocol_text: Inhibition of human tissue factor/factor 7a
measure: IC50 (µM)
Supply the numeric figure in µM, leaving out any unit text.

The examples below pair each entry with its known result.
>>> print(df.to_string())
                                   compound  measure  unit_info  meas_value
0  N=C(N)c1ccc(CNC(=O)CN2C(=O)C(NS(=O)(=O)Cc3ccccc3)CSc3ccccc32)cc1 (single isomer, unassigned)     IC50         µM        2.16
1  N=C(N)c1ccc(CNC(=O)CN2C(=O)[C@H](NS(=O)(=O)Cc3ccccc3)CSc3ccc(-c4cccc([N+](=O)[O-])c4)cc32)cc1     IC50         µM        5.96
2  N=C(N)c1ccc(CNC(=O)CN2C(=O)[C@H](NS(=O)(=O)Cc3ccccc3)CSc3ccc(CC(N)C(=O)O)cc32)cc1 (stereo partly drawn)     IC50         µM         1.5
3  N=C(N)c1ccc(CNC(=O)CN2C(=O)[C@H](NS(=O)(=O)Cc3ccccc3)CSc3ccc(-c4ccccc4)cc32)cc1     IC50         µM        10.9

stdin: # lookup: IC50 of N=C(N)c1ccc(CNC(=O)CN2C(=O)[C@H](NS(=O)(=O)Cc3ccccc3)CSc3ccc(CC(=O)O)cc32)cc1
stdout: 2.98

###

Let's go through some recorded pIC50 values for Prothrombin (Homo sapiens, UniProt P00734) together.
Please report pIC50 as the negative decimal logarithm of the molar concentration, giving only the number.

Example entries and their recorded answers appear below.
In [3]: df
Out[3]:
                                   compound  meas_value
0  N=C(N)c1ccc(CNC(=O)CN2C(=O)[C@@H](N)CSc3ccccc32)cc1        4.06
1  N=C(N)c1ccc(CNC(=O)CN2C(=O)[C@@H](NS(=O)(=O)Cc3ccccc3)CSc3ccccc32)cc1        4.32
2  N=C(N)c1ccc(CNC(=O)CN2C(=O)[C@H](NS(=O)(=O)Cc3ccccc3)CSc3ccc(-c4cccc([N+](=O)[O-])c4)cc32)cc1        6.10
3  N=C(N)c1ccc(CNC(=O)CN2C(=O)C(NS(=O)(=O)Cc3ccccc3)CSc3ccccc32)cc1 (single isomer, unassigned)        6.43

Next compound, please.
stdin: So what pIC50 did CC(=O)N[C@@H]1CSc2ccccc2N(CC(=O)NCc2ccc(N)nc2C)C1=O get with Prothrombin (Homo sapiens, UniProt P00734)?
stdout: 3.88

###

test_system: Coagulation factor VII/tissue factor (Homo sapiens, UniProt P08709)
protocol_text: Inhibition of human tissue factor/factor 7a
// reported IC50 for each item listed

Worked examples follow.
>>> print(df.to_string())
                                   compound  measure  meas_value
0  Cc1nc(N)ccc1CNC(=O)CN1C(=O)[C@H](N)CSc2ccccc21     IC50    > 300 µM
1  N=C(N)c1ccc(CNC(=O)CCN2C(=O)[C@H](NC(=O)CCC(=O)O)CSc3ccccc32)cc1     IC50       61 µM
2  CC(=O)N[C@H]1CSc2ccccc2N(CC(=O)NCc2ccc(N)nc2C)C1=O     IC50    > 300 µM
3  N=C(N)c1ccc(CNC(=O)CN2C(=O)[C@H](NS(=O)(=O)Cc3ccccc3)CSc3ccc(-c4cccc(N)c4)cc32)cc1     IC50     6.86 µM
4  N=C(N)c1ccc(CNC(=O)CN2C(=O)[C@@H](N)CSc3ccccc32)cc1     IC50     24.4 µM

stdin: Need IC50 of CC(=O)N[C@H]1CSc2ccccc2N(CCC(=O)NCc2ccc(C(=N)N)cc2)C1=O , thanks.
stdout: 168 µM

stdin: Would you kindly share the measured IC50 for Cc1nc(N)ccc1CNC(=O)CN1C(=O)[C@H](NCC(=O)O)CSc2ccccc21 ?
stdout: > 33 µM

stdin: Report IC50 for Cc1nc(N)ccc1CNC(=O)CCN1C(=O)[C@H](NS(=O)(=O)Cc2ccccc2)CSc2ccccc21 please.
stdout: > 33 µM

stdin: Given the entry N=C(N)c1ccc(CNC(=O)CN2C(=O)[C@H](NS(=O)(=O)Cc3ccccc3)CSc3cc(N)ccc32)cc1 , report its measured IC50.
stdout: 4.86 µM

stdin: Endpoint output: IC50 of N=C(N)c1ccc(CNC(=O)CN2C(=O)[C@H](NS(=O)(=O)Cc3ccccc3)CSc3ccc(CCC(=O)O)cc32)cc1 . Value?
stdout: 2.64 µM

stdin: Entry under review: N=C(N)c1ccc(CNC(=O)CN2C(=O)[C@H](NS(=O)(=O)Cc3ccccc3)CSc3ccc(CCN)cc32)cc1 . Reported IC50?
stdout: 1.32 µM

stdin: Entry N=C(N)c1ccc(CNC(=O)CCN2C(=O)[C@H](NCC(=O)O)CSc3ccccc32)cc1 : reported IC50 = ?
stdout: 95 µM

stdin: Looking for the measured IC50 of N=C(N)c1ccc(CNC(=O)CN2C(=O)[C@@H](NC(=O)CCC(=O)O)CSc3ccccc32)cc1 , can you help?
stdout: 27.7 µM

###

test_system: Coagulation factor VII/tissue factor (Homo sapiens, UniProt P08709)
protocol_text: Inhibition of human tissue factor/factor 7a
pIC50: −log10 of the molar value.
Each item that follows carries a reported pIC50.

Solved cases below.
>>> print(df.to_string())
                               entry_smiles  measure  meas_value
0  CC(=O)N[C@@H]1CSc2ccccc2N(CC(=O)NCc2ccc(N)nc2C)C1=O    pIC50      < 3.52
1  Cc1nc(N)ccc1CNC(=O)CCN1C(=O)[C@H](NCC(=O)O)CSc2ccccc21    pIC50      < 4.48

Attention now turns to another entry.
stdin: Recorded pIC50 for Cc1nc(N)ccc1CNC(=O)CN1C(=O)[C@@H](N)CSc2ccccc21 with Coagulation factor VII/tissue factor (Homo sapiens, UniProt P08709), please?
stdout: < 3.52

###

test_system: Coagulation factor VII/tissue factor (Homo sapiens)
protocol_text: Inhibition of human tissue factor/factor 7a
Would you mind classing the entries by IC50? Ranges: bin A = under 10 µM, bin B = from 10 µM up to 60 µM, bin C = 60 µM and over

Previously resolved entries follow.
>>> df
                                   molecule  class_label
0  N=C(N)c1ccc(CNC(=O)CCN2C(=O)[C@@H](NCC(=O)O)CSc3ccccc32)cc1        bin C
1  N=C(N)c1ccc(CNC(=O)CN2C(=O)[C@H](NS(=O)(=O)Cc3ccccc3)CSc3cc(CC(=O)O)ccc32)cc1        bin B
2  N=C(N)c1ccc(CNC(=O)CN2C(=O)[C@H](NS(=O)(=O)Cc3ccccc3)CSc3cc(CN)ccc32)cc1        bin A
3  CC(=O)N[C@@H]1CSc2ccccc2N(CCC(=O)NCc2ccc(C(=N)N)cc2)C1=O        bin C
4  N=C(N)c1ccc(CNC(=O)CN2C(=O)[C@H](NS(=O)(=O)Cc3ccccc3)CSc3ccc(CN)cc32)cc1        bin A
5  N=C(N)c1ccc(CNC(=O)CN2C(=O)[C@H](NCC(=O)O)CSc3ccccc32)cc1        bin B

stdin: Hello team, could you let me know which band the following molecule falls into: N=C(N)c1ccc(CNC(=O)CN2C(=O)C(NC(=O)CCC(=O)O)CSc3ccccc32)cc1 (single isomer, unassigned)
stdout: bin C

stdin: Lab log: CC(=O)N[C@H]1CSc2ccccc2N(CC(=O)NCc2ccc(C(=N)N)cc2)C1=O — assign IC50 category
stdout: bin B

stdin: Category of N=C(N)c1ccc(CNC(=O)CN2C(=O)[C@H](NS(=O)(=O)Cc3ccccc3)CSc3ccc(C(=O)O)cc32)cc1 , please.
stdout: bin A

stdin: For this molecule, which bin applies? N=C(N)c1ccc(CNC(=O)CCN2C(=O)[C@@H](NC(=O)CCC(=O)O)CSc3ccccc32)cc1
stdout: bin C

stdin: For this molecule, which bin applies? N=C(N)c1ccc(CNC(=O)CN2C(=O)[C@H](NS(=O)(=O)Cc3ccccc3)CSc3cc(CCC(=O)O)ccc32)cc1
stdout: bin B

stdin: State the band of N=C(N)c1ccc(CNC(=O)CCN2C(=O)[C@H](NS(=O)(=O)Cc3ccccc3)CSc3ccccc32)cc1
stdout: bin C

stdin: Classify this molecule: N=C(N)c1ccc(CNC(=O)CN2C(=O)[C@@H](NS(=O)(=O)Cc3ccccc3)CSc3ccccc32)cc1
stdout: bin B

stdin: Exercise: read the entry CC(=O)N[C@@H]1CSc2ccccc2N(CC(=O)NCc2ccc(C(=N)N)cc2)C1=O and state which class it falls under.
stdout: bin C

stdin: Pick a category. Item: N=C(N)c1ccc(CNC(=O)CCN2C(=O)[C@@H](NS(=O)(=O)Cc3ccccc3)CSc3ccccc32)cc1
stdout: bin B
